testedOn: MmPDE5A3 (Mus musculus, UniProt Q8CG03)
procedureDetails: [3H]cGMP hydrolysis assay; also spectrophotometric thiol titration and native PAGE
pIC50: −log10 of the molar value.
parameter: pIC50

Request: Bench note: what pIC50 did `O=C(O)c1cc(SSc2ccc([N+](=O)[O-])c(C(=O)O)c2)ccc1[N+](=O)[O-]` show?
Result: ~4.52
